System: HEK-293T
PROTOCOL_DETAILS: Incucyte cell viability with HEK293T; also: unitless GR value; below 1 slowed growth and below 0 cell loss
Assay type: toxicity, cell-based
CONDITION_CONTEXT: human, 24 h, 10 µM, compound concentration 10 uM, replicate number 2, timepoint 24 hours
Overview of reported Growth Rate across a group of compounds:
Quick one: just the number, no unit, thanks!

Lab note: compound "CC(C)c1cc(Oc2c(Cl)cc(-n3nc(C#N)c(=O)[nH]c3=O)cc2Cl)n[nH]c1=O" tested on HEK-293T; recorded Growth Rate was 0.86

Lab note: compound "O=C(c1cc(C2CC2)on1)N(C1CCCCC1)C1CCCCC1" tested on HEK-293T; recorded Growth Rate was 0.67

Lab note: compound "O=C1[C@H](Cc2ccc(O)cc2)N2C(=O)CCN(C(=O)NCc3ccccc3)[C@H]2CN1Cc1cccc2ccccc12" tested on HEK-293T; recorded Growth Rate was -0.21

Lab note: compound "CNCCN1CCC(c2cc(CN(C)C(=O)c3cccc(Oc4ccccc4)c3)ccn2)CC1" tested on HEK-293T; recorded Growth Rate was 0.81

Lab note: compound "N#Cc1c(Oc2cccc(OS(=O)(=O)CCCC(F)(F)F)c2)cccc1C(F)(F)F" tested on HEK-293T; recorded Growth Rate was 0.55

###

Overview of reported Growth Rate across a group of molecules:
Test system: U2OS
PROTOCOL_DETAILS: Incucyte cell viability with U2OS; also: unitless GR value; below 1 slowed growth and below 0 cell loss
Format: toxicity, cell-based
CONDITION_CONTEXT: human, 0 h, 10 µM, compound concentration 10 uM, replicate number 2, timepoint 0 hours
Quick one: just the number, no unit, thanks!

Completed entries (count: 3):
{"MOLECULE": "O=C(NCCN1CCC(n2c(=O)[nH]c3cc(Cl)ccc32)CC1)c1ccc(F)cc1 [HALOPEMIDE]", "Growth Rate": 0.14}
{"MOLECULE": "CC(C)Oc1ccc(Cc2ccc(NC3=NCCN3)cc2)cc1", "Growth Rate": 0.45}
{"MOLECULE": "OCCCNc1cc(-c2ccnc(Nc3cccc(Cl)c3)n2)ccn1", "Growth Rate": -0.28}

Lab note: molecule CCCCC1=NC2(CCCC2)C(=O)N1Cc1ccc(-c2ccccc2-c2nnn[nH]2)cc1 [IRBESARTAN] tested on U2OS; recorded Growth Rate was -1

Lab note: molecule "COc1cc(N2CCN(C)CC2)ccc1Nc1nccc(-c2cn(C)c3cnccc23)n1" tested on U2OS; recorded Growth Rate was -1

###

Test system: U2OS
PROTOCOL_DETAILS: Incucyte cell viability with U2OS; also: unitless GR value; below 1 slowed growth and below 0 cell loss
Format: toxicity, cell-based
CONDITION_CONTEXT: human, 24 h, 10 µM, compound concentration 10 uM, replicate number 2, timepoint 24 hours
TEST_READOUT: Growth Rate
Quick one: just the number, no unit, thanks!

Per the record, "O=C(O)C(F)(F)F.O=C1NC(=O)/C(=C/c2c[nH]c(=O)c(-c3ccc(N4CCNCC4)nc3)c2)S1" has Growth Rate of 0.94

Per the record, "CN(C)CCN(Cc1ccc(-c2ccc(CNCCc3ccccc3)cc2)cc1)C(=O)CCC1CCCC1.Cl.Cl" has Growth Rate of -0.58

Per the record, "COc1ncc2cc(C(=O)Nc3cc(C(=O)NCc4cccc(Cl)c4)ccc3Cl)c(=O)[nH]c2n1" has Growth Rate of 0.69

Per the record, "COc1ccccc1N1CCN(C[C@@H](C(=O)NC(C)(C)C)c2ccccc2)CC1.Cl.Cl" has Growth Rate of 1

Per the record, CS(=O)(=O)c1ccc(C(=O)Nc2ccc(Cl)c(-c3ccccn3)c2)c(Cl)c1 [VISMODEGIB] has Growth Rate of 0.86

Per the record, CCCCC1=NC2(CCCC2)C(=O)N1Cc1ccc(-c2ccccc2-c2nnn[nH]2)cc1 [IRBESARTAN] has Growth Rate of 0.92

Per the record, O=C(N[C@@H]1CC[C@@H](c2cccc(F)c2F)CN(CC(F)(F)F)C1=O)N1CCC(n2c(=O)[nH]c3ncccc32)CC1 [TELCAGEPANT] has Growth Rate of 0.95

Per the record, "NC(=O)c1cc2c(-c3ccc(C(=O)NCc4ccnc(Cl)c4)s3)cccc2s1" has Growth Rate of -0.08

###

System: HEK-293T
PROTOCOL_DETAILS: Incucyte cell viability with HEK293T; also: unitless GR value; below 1 slowed growth and below 0 cell loss
Type: toxicity, cell-based
CONDITION_CONTEXT: human, 12 h, 10 µM, compound concentration 10 uM, replicate number 2, timepoint 12 hours
Overview of reported Growth Rate across a group of compounds:
Quick one: just the number, no unit, thanks!

Completed entries (count: 2):
{"COMPOUND": "CCC(C)n1ncn(-c2ccc(N3CCN(c4ccc(OC[C@@H]5CO[C@@](Cn6cncn6)(c6ccc(Cl)cc6Cl)O5)cc4)CC3)cc2)c1=O.CCC(C)n1ncn(-c2ccc(N3CCN(c4ccc(OC[C@H]5CO[C@](Cn6cncn6)(c6ccc(Cl)cc6Cl)O5)cc4)CC3)cc2)c1=O (some centres not stated)", "TEST_TARGET": "HEK-293T", "Growth Rate": 0.15}
{"COMPOUND": "O=C(O)C(F)(F)F.O=C1NC(=O)/C(=C/c2c[nH]c(=O)c(-c3ccc(N4CCNCC4)nc3)c2)S1", "TEST_TARGET": "HEK-293T", "Growth Rate": 0.7}

Per the record, "N#Cc1c(Oc2cccc(OS(=O)(=O)CCCC(F)(F)F)c2)cccc1C(F)(F)F" has Growth Rate of 0.28

Per the record, OCc1cc(C(O)CNCCCCCCOCCCCc2ccccc2)ccc1O (configuration not stated) has Growth Rate of 0.57

Per the record, "C[C@]12N[C@H](Cc3ccccc31)c1ccccc12" has Growth Rate of 0.84

Per the record, C[C@@H](O[C@H]1OCCN(Cc2n[nH]c(=O)[nH]2)[C@H]1c1ccc(F)cc1)c1cc(C(F)(F)F)cc(C(F)(F)F)c1 [APREPITANT] has Growth Rate of 0.97

Per the record, "CCCCC/C=C\C/C=C\C/C=C\C/C=C\CCCC(=O)OC(CO)CO" has Growth Rate of 0.51

###

Overview of reported Growth Rate across a group of compounds:
Tested on: Fibroblast
PROTOCOL_DETAILS: Incucyte cell viability with human fibroblast; also: unitless GR value; below 1 slowed growth and below 0 cell loss
Type: toxicity, cell-based
CONDITION_CONTEXT: 18 h, 10 µM, compound concentration 10 uM, replicate number 1, timepoint 18 hours

{"COMPOUND": "CC(F)(F)CN1CCOc2c(nn(-c3ccccc3Cl)c2-c2ccc(Cl)cc2)C1=O", "TEST_TARGET": "Fibroblast", "TEST_READOUT": "Growth Rate", "ENDPOINT_RESULT": -0.21}

Per the record, "CCC(=O)NCC[C@@H]1CCc2ccc3c(c21)CCO3" has Growth Rate of 0.96

Per the record, "CN(CCN1CCC(OC(=O)Nc2ccccc2-c2ccccc2)CC1)C(=O)c1ccc(CN2CCC(C(N)=O)CC2)cc1" has Growth Rate of 0.65

Per the record, CCCCCC(O)/C=C/[C@H]1C(=O)CC(O)C1C/C=C\CCCC(=O)O (some centres undefined) has Growth Rate of 0.47

Per the record, CC[S+]([O-])c1nc(-c2cccc(OCc3ccccc3)c2)cc(C(F)(F)F)n1 (centres undefined) has Growth Rate of -0.48

Per the record, "CN(c1ncccc1CNc1ccnc(-c2cc3cc(Cl)ccc3[nH]2)n1)S(C)(=O)=O" has Growth Rate of -0.12

Per the record, "O=C(c1cc(C2CC2)on1)N(C1CCCCC1)C1CCCCC1" has Growth Rate of 0.82

Per the record, "CN(C)C(=O)Cn1cc(-c2ccc(-c3cncc4ccccc34)cc2)cn1" has Growth Rate of 0.21

Per the record, "CN(C)C(=O)N1CC[C@H](NC2=Nc3cc(F)ccc3N(CC(F)F)c3ccc(Cl)cc32)C1" has Growth Rate of 0.62

###

Tested on: Fibroblast
PROTOCOL_DETAILS: Incucyte cell viability with human fibroblast; also: unitless GR value; below 1 slowed growth and below 0 cell loss
Type: toxicity, cell-based
CONDITION_CONTEXT: 0 h, 10 µM, compound concentration 10 uM, replicate number 1, timepoint 0 hours
TEST_READOUT: Growth Rate

Lab note: compound "COc1ccc2c(c1OCc1ccccc1)C[C@@H](C(=O)O)N(C(=O)C(c1ccccc1)c1ccccc1)C2" tested on Fibroblast; recorded Growth Rate was 0.93

Lab note: compound "N[C@](CC1c2ccccc2Oc2ccccc21)(C(=O)O)[C@H]1C[C@@H]1C(=O)O" tested on Fibroblast; recorded Growth Rate was 0.29

Lab note: compound "O=C(Nc1cc(-c2cn[nH]c2)ccc1N1CCOCC1)c1ccc(-c2ccc3ncccc3c2)o1" tested on Fibroblast; recorded Growth Rate was 0.62

Lab note: compound "COc1ccc2nc3ccc(OC)cc3c(SCCCN)c2c1.Cl" tested on Fibroblast; recorded Growth Rate was 0.15

###

System: HEK-293T
PROTOCOL_DETAILS: Incucyte cell viability with HEK293T; also: unitless GR value; below 1 slowed growth and below 0 cell loss
Type: toxicity, cell-based
CONDITION_CONTEXT: human, 12 h, 10 µM, compound concentration 10 uM, replicate number 2, timepoint 12 hours
Overview of reported Growth Rate across a group of compounds:
Quick one: just the number, no unit, thanks!

Per the record, "Cc1cc(Nc2ncc(Cl)c(Nc3ccccc3S(=O)(=O)C(C)C)n2)c(OC(C)C)cc1C1CCNCC1" has Growth Rate of -0.66

Per the record, "CC(C)c1noc(N2CCC(COc3ccc(-c4ccc(S(C)(=O)=O)cc4)nc3)CC2)n1" has Growth Rate of 0.17

Per the record, "CN[C@@H](C)C(=O)N[C@H](C(=O)N1CCC[C@H]1C(=O)Nc1snnc1-c1ccccc1)C1CCCCC1" has Growth Rate of 0.71

Per the record, "N[C@@H](CCP(=O)(O)O)C(=O)O" has Growth Rate of 0.88

Per the record, Nc1cnc(N2CCc3cc(S(=O)(=O)Nc4c(F)cc(Cl)cc4F)cc(N4CCCC4=O)c32)nc1 [TP-020n] has Growth Rate of 0.71

Per the record, "COc1ccc2cc(S(=O)(=O)N[C@H](CC(=O)N[C@H](Cc3ccc(CN4[C@H](C)CCC[C@@H]4C)cc3)C(=O)N(C)C(C)C)c3ccc4c(c3)OCO4)ccc2c1.Cl" has Growth Rate of 0.35

Per the record, "Cc1cc(C)cc([C@H]2c3cc(C)ccc3NC(=O)CN2C(=O)c2ccc(Br)s2)c1" has Growth Rate of 0.81

Per the record, "CC(C)Oc1ccc(Cc2ccc(NC3=NCCN3)cc2)cc1" has Growth Rate of 0.1

// provenance: ChEMBL document CHEMBL5058564
